Collected normalized growth values appear next to each entry.
# Test Protocol: chemical genetic growth profiling, strain panel (AID 1159580);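 further: tested at 20 µM; growth read once vehicle control cultures reached saturation at 30 °C; 1 = growth at the plate median or of vehicle wells; lower values mean less growth of the strain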
# Assay Setup: S. cerevisiae deletion strains, growth OD, locus YMR263W, strain SAP30, active compounds read low
About 2,000 (36%) of roughly 5,500 compounds were called active. About 18% were inconclusive and are not listed. Some of the results follow.
Number only, no unit.

Use these answered entries as a reference point.
{"Compound": "CC(C)OC(=O)C(C)(C)Oc1ccc(C(=O)c2ccc(Cl)cc2)cc1", "normalized growth": 1}
{"Compound": "COC(=O)c1sccc1OC(=O)c1c(F)cccc1F", "normalized growth": 0.974}
{"Compound": "CC(=O)OCC(=O)[C@@]1(O)CCC2C3CCC4=CC(=O)CC[C@]4(C)C3C(=O)C[C@@]21C (some centres not stated)", "normalized growth": 1.01}
{"Compound": "COc1cc2c(cc1OC)Cc1cc(OC)c(OC)cc1Cc1cc(OC)c(OC)cc1C2", "normalized growth": 1.01}

Incoming: # input compound: Oc1cc2c(c(Cl)c1O)CCNCC2c1ccccc1 (configuration not stated) ; wanted: its normalized growth
Outgoing: 1.01

Incoming: # input compound: C=CCN1CCc2cc(O)c(O)cc2C(c2ccccc2)C1 (configuration not stated) ; wanted: its normalized growth
Outgoing: 1

// data source = PubChem BioAssay AID1159580
